test: chemical genetic growth profiling, strain panel (AID 1159580);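 note: tested at 20 µM; growth read once vehicle control cultures reached saturation at 30 °C; 1 = growth at the plate median or of vehicle wells; lower values mean less growth of the strain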; conditions: S. cerevisiae deletion strains, growth OD, locus YDR392W, strain spt3, stronger effect = lower value
The campaign covered roughly 5,500 compounds. About 2,000 (36%) were called active. Not shown: some 18% with an inconclusive outcome. The list shows a part of the results.
parameter: normalized growth
Answer with a bare number; do not write a unit.

[
  {
    "compound": "OCc1c[nH]c2ccccc12",
    "normalized growth": 0.856
  },
  {
    "compound": "NCCc1c[nH]c2ccccc12",
    "normalized growth": 1.01
  },
  {
    "compound": "CNC(Cc1c[nH]c2ccccc12)C(=O)O (stereo not drawn)",
    "normalized growth": 0.963
  },
  {
    "compound": "COc1c2ccoc2cc2oc(C)cc(=O)c12",
    "normalized growth": 0.961
  },
  {
    "compound": "CC(=O)Oc1cc2c(c(C)c1OC(C)=O)CC1OC13C2(C)CCC1(C)C2CC(C)(C(=O)O)CCC2(C)CCC13C (stereo not drawn)",
    "normalized growth": 0.919
  },
  {
    "compound": "CC1=C(O)C(=O)C=C2C1=CC=C1[C@@]2(C)CC[C@@]2(C)[C@@H]3C[C@](C)(C(=O)O)CC[C@]3(C)CC[C@]12C",
    "normalized growth": 0.101
  }
]

Identify the reported normalized growth for the following entry. c1ccc2c(Cc3c[nH]c4ccccc34)c[nH]c2c1
0.11

Identify the reported normalized growth for the following entry. CC(=O)N[C@@H](Cc1c[nH]c2ccccc12)C(=O)O
0.988

----------
assay: chemical genetic growth profiling, strain panel (AID 1159580);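 note: tested at 20 µM; growth read once vehicle control cultures reached saturation at 30 °C; 1 = growth at the plate median or of vehicle wells; lower values mean less growth of the strain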; conditions: S. cerevisiae deletion strains, growth OD, locus YJL095W, strain BCK1 (second series)
About 2,000 (36%) of roughly 5,500 compounds were called active. About 18% were inconclusive and are not listed. Rule as the data show it: active = normalized growth mostly below about 0.91 (no sharp cut-off); inconclusive = no clear call, values can overlap the other calls; inactive = mostly above about 0.92. The list shows a part of the results.
One label from this list, please: active, inactive

[
  {
    "molecule": "C1CCC(C(CC2CCCCN2)C2CCCCC2)CC1 (stereo unspecified)",
    "assigned-label": "inactive"
  },
  {
    "molecule": "CC(=O)NO",
    "assigned-label": "inactive"
  },
  {
    "molecule": "CC(=O)O[C@@H]1CC[C@]2(C)C3CC[C@]4(C)C(=O)CCC4C3CC[C@H]2C1 (stereo partly specified)",
    "assigned-label": "inactive"
  }
]

Per the assay record, what outcome was assigned to CC(=O)O[C@H]1CC[C@]2(C)C3CC[C@@]4(C)C(CC5O[C@@]6(CCC(C)CO6)[C@@H](C)C54)C3CC[C@@H]2C1 (stereo partly specified) ?
inactive

Per the assay record, what outcome was assigned to NC(N)=NC(N)=Nc1ccccc1 ?
inactive

Per the assay record, what outcome was assigned to OC(c1cc(C(F)(F)F)nc2c(C(F)(F)F)cccc12)C1CCCCN1 (stereo unspecified) ?
inactive

Per the assay record, what outcome was assigned to c1ccc([C@H]2CN3CCSC3=N2)cc1 ?
inactive

Per the assay record, what outcome was assigned to CN1CCN(CCCN2c3ccccc3Sc3ccc(C(F)(F)F)cc32)CC1 ?
active

Per the assay record, what outcome was assigned to CC(=O)OC1CCC2(C)C3CC(=O)C4(C)C(CC5OC6(CCC(C)CO6)[C@@H](C)C54)C3CC[C@H]2C1 (stereo partly specified) ?
inactive

Per the assay record, what outcome was assigned to CN(C)CCc1c[nH]c2ccc(C[C@H]3COC(=O)N3)cc12 ?
inactive

Per the assay record, what outcome was assigned to Cc1cc(C(C)(C)C)cc(C)c1CC1=NCCN1 ?
inactive

Per the assay record, what outcome was assigned to CN1CCN(CC(=O)N2c3ccccc3C(=O)Nc3cccnc32)CC1 ?
inactive

Per the assay record, what outcome was assigned to CN(C)CCc1c[nH]c2ccc(CS(=O)(=O)N3CCCC3)cc12 ?
inactive

Per the assay record, what outcome was assigned to CNCC[C@@H](Oc1ccccc1)c1ccccc1 ?
inactive

Per the assay record, what outcome was assigned to CCC1C(=O)OCC1Cc1cncn1C (stereo unspecified) ?
inactive

Per the assay record, what outcome was assigned to CO[C@@]1(NC(=O)Cc2cccs2)C(=O)N2C(C(=O)O)=C(COC(N)=O)CS[C@@H]21 ?
inactive

Per the assay record, what outcome was assigned to COc1cnc(NS(=O)(=O)c2ccc(N)cc2)nc1 ?
inactive

Per the assay record, what outcome was assigned to COc1cc2c(cc1O)CCNC2C (stereo unspecified) ?
inactive

Per the assay record, what outcome was assigned to CC(=O)CC1CCCCN1 (stereo unspecified) ?
inactive

Per the assay record, what outcome was assigned to NCCNCCNCCN ?
inactive

Where these numbers come from: PubChem BioAssay AID1159580
